# TEST SYSTEM: human α2C‐adrenoceptor (Homo sapiens, UniProt P18825)
# Sequence (P18825 1-462): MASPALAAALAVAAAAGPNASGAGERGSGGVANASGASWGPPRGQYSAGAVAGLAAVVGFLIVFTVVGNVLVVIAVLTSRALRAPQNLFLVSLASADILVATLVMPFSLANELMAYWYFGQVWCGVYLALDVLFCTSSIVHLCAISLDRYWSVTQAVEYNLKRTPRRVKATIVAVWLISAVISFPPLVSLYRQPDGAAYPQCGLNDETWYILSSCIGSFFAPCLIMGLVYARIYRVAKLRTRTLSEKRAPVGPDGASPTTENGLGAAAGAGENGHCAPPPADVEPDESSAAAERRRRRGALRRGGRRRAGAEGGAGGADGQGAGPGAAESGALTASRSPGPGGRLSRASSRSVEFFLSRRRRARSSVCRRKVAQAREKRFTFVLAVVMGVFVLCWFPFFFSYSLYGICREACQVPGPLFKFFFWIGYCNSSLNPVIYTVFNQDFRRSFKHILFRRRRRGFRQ
# EXPERIMENTAL PROTOCOL: 3H‐rauwolscine whole cell binding in CHO‐α2C cells
# Parameters: expressed in transfected cells; host or cells: CHO-K1 with CRE-SPAP reporter
# TEST PARAMETERS: Log KD, CHO‐α2C
Exercise: state measured pKd for each of the molecules provided.
One number for each entry, as −log10 of the molar value.

Tell me measured pKd for CN[C@@H](C)[C@H](O)c1ccccc1 [Ephedrine] please. 4.40

Tell me measured pKd for Cc1cc(C(C)(C)C)cc(C)c1CC1=NCCN1 [Xylometazoline] please. 6.97

Tell me measured pKd for Cc1cccc(C)c1N=C1NCCCS1 [Xylazine] please. 5.22

Now look at this entry.
Tell me measured pKd for C=CCc1ccccc1OC(C)C1=NCCN1 (stereo not shown) [Allyphenyline] please. 6.67

All values here come from paper PMC9471048.
